# credit: patent US20240109974A1

# Test Target: T1, human TNFR2 on the surface of CHO-TNFR2 cells (human, UniProt P20333 23-461)
# T1 construct: whole, on cells
# T1 sequence (looked up): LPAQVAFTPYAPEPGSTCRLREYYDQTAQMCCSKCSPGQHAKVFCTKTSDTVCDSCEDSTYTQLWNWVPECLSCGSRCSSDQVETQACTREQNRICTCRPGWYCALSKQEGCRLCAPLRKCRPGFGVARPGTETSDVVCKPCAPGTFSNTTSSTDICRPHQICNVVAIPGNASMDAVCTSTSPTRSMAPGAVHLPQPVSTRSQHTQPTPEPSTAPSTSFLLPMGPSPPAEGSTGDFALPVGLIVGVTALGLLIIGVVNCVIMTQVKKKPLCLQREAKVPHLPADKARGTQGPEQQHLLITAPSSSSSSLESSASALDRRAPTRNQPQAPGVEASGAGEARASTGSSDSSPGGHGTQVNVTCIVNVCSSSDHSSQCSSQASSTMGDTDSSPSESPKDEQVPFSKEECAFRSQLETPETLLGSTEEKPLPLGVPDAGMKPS
# Assay Explanation: competition flow cytometry on CHO-TNFR2 cells, competitor human TNFα-biotin
Measurement Name: IC50 (µg/mL)
Respond numerically; units are µg/mL and should not be typed.

Task item: Can you look up the measured IC50 of 224-Hu1 (antibody, V domains shown, Humanized form of #224; also called VH8 + VL6) VH: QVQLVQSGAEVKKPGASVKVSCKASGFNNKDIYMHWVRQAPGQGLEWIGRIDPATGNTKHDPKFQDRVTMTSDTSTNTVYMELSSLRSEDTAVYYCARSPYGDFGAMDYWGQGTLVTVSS VL: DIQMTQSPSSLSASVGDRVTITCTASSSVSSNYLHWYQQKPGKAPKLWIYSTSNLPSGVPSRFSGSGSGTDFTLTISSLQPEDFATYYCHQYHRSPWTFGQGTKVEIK for me?
Reply: 0.042

Task item: Can you look up the measured IC50 of 224-Hu6 (antibody, V domains shown, Humanized form of #224; also called VH8 + VL7) VH: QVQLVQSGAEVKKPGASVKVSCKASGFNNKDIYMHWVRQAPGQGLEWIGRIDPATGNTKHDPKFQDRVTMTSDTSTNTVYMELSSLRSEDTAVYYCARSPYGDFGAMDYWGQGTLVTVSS VL: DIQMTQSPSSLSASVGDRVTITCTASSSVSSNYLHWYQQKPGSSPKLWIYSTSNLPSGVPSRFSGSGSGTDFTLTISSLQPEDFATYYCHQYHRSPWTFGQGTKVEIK for me?
Reply: 0.061

Task item: Can you look up the measured IC50 of 224-Hu5 (antibody, V domains shown, Humanized form of #224; also called VH9 + VL9) VH: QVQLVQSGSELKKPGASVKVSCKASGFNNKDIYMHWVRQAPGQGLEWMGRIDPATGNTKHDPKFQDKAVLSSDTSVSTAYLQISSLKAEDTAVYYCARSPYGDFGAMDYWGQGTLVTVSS VL: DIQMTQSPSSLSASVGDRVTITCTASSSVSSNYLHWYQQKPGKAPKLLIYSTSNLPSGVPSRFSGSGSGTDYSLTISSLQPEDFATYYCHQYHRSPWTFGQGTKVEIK for me?
Reply: 0.062
